assay overview: Measurement of water resistance (hot water treatment of aqueous suspension, extinction coefficient and TG-DTA)
Format: physicochemical
condition: 10 % by weight aqueous suspension, 80°C for 2 hours; change of molecular extinction coefficient in λmax
Provide the recorded Water resisting stability for the entries that follow.
The figure you give is taken to be in %; do not add the unit.

Given COc1ccc(C(=O)CC(=O)c2ccccc2C(=O)O)cc1 [reference compound] , state its recorded Water resisting stability.
52.0

And for `O=c1oc(-c2ccc3cc(-c4nc5ccccc5c(=O)o4)ccc3c2)nc2ccccc12` ?
96.7

Lookup `O=c1oc(-c2ccc(-c3ccc(-c4nc5ccccc5c(=O)o4)cc3)cc2)nc2ccccc12`
97.6

Try this compound next: `COc1ccc(C(=O)CC(=O)c2ccc(C(C)(C)C)cc2)cc1`
89.4

One more compound: `O=c1oc(-c2ccc(-c3nc4ccccc4c(=O)o3)cc2)nc2ccccc12`
96.9

---

assay overview: Measurement of solubility in water, alcohols and oily cosmetic bases
Format: physicochemical
condition: organic solvent or mixture; Olive oil, 15°C
assay metric: solubility (mg/mL)
Your answer should be a plain number; it is taken to be in mg/mL.

If you can, please state the reported solubility value of COc1ccc(C(=O)CC(=O)c2ccc(C(C)(C)C)cc2)cc1 [4-t-butyl-4'-methoxydibenzoylmethane, 4-t-butyl-4'-methoxy-dibenzoylmethane] .
19

---

assay overview: Measurement of ultraviolet ray-absorbing ability (spectrophotometer)
Type: physicochemical
condition: 1,1,2,2-tetrachloroethane, 5x10⁻⁴ g/100 ml, optical path length 1 cm
Please respond with reported λs (absorption intiation wavelength) for every item in the list.
Kindly provide the numeric value in nm only, without the unit symbol.

Quick check: λs (absorption intiation wavelength) of O=c1oc(-c2ccc(-c3nc4ccccc4c(=O)o3)cc2)nc2ccccc12 [A] ?
385

Ok, now O=c1oc(-c2ccc3cc(-c4nc5ccccc5c(=O)o4)ccc3c2)nc2ccccc12 [C]
400

Item: COc1ccc(C(=O)CC(=O)c2ccc(C(C)(C)C)cc2)cc1 [4-t-butyl-4'-methoxydibenzoylmethane, 4-t-butyl-4'-methoxy-dibenzoylmethane]
400

Also `O=c1oc(-c2ccc(-c3ccc(-c4nc5ccccc5c(=O)o4)cc3)cc2)nc2ccccc12` , if possible.
395

---

assay overview: Measurement of solubility in water, alcohols and oily cosmetic bases
Format: physicochemical
condition: organic solvent or mixture; Isopropyl myristate, 15°C
assay metric: solubility (mg/mL)
Dear colleague, please return just the value in mg/mL, with no unit written.

Requested read-out: solubility. Entry: `COc1ccc(C(=O)CC(=O)c2ccc(C(C)(C)C)cc2)cc1`
53

---

assay overview: Measurement of solubility in water, alcohols and oily cosmetic bases
Format: physicochemical
condition: organic solvent or mixture; Glycerin, 15°C
assay metric: solubility (µg/mL)
Quick note: give the figure in µg/mL, leave out the unit.

Given the molecule COc1ccc(C(=O)CC(=O)c2ccc(C(C)(C)C)cc2)cc1 [4-t-butyl-4'-methoxydibenzoylmethane, 4-t-butyl-4'-methoxy-dibenzoylmethane] , what is its reported solubility?
2500

---

assay overview: Measurement of solubility in water, alcohols and oily cosmetic bases
Format: physicochemical
condition: organic solvent or mixture; Light liquid paraffin, 15°C
assay metric: solubility (mg/mL)
Write it as a number; the unit mg/mL goes unstated.

So what's the measured solubility for this one? COc1ccc(C(=O)CC(=O)c2ccc(C(C)(C)C)cc2)cc1 [4-t-butyl-4'-methoxydibenzoylmethane, 4-t-butyl-4'-methoxy-dibenzoylmethane]
8.5

---

assay overview: Measurement of ultraviolet ray-absorbing ability (spectrophotometer)
Assay type: physicochemical
condition: at λmax; 1,1,2,2-tetrachloroethane, 5x10⁻⁴ g/100 ml, optical path length 1 cm
Give E 1%, 1cm for every item shown.
Respond numerically, and do not add a unit to the figure.

Quick one: E 1%, 1cm of `O=c1oc(-c2ccc(-c3ccc(-c4nc5ccccc5c(=O)o4)cc3)cc2)nc2ccccc12` ?
1300

Then COc1ccc(C(=O)CC(=O)c2ccc(C(C)(C)C)cc2)cc1 [4-t-butyl-4'-methoxydibenzoylmethane, 4-t-butyl-4'-methoxy-dibenzoylmethane] ?
1040

Follow-up item: O=c1oc(-c2ccc3cc(-c4nc5ccccc5c(=O)o4)ccc3c2)nc2ccccc12 [C]
1070

Okay, and O=c1oc(-c2ccc(-c3nc4ccccc4c(=O)o3)cc2)nc2ccccc12 [A] ?
1270

---

assay overview: Measurement of solubility in water, alcohols and oily cosmetic bases
Assay type: physicochemical
condition: Water, 15°C
assay metric: solubility (µg/mL)
API: value field is a number in µg/mL; no unit string.

What does the record list as solubility for `COc1ccc(C(=O)CC(=O)c2ccc(C(C)(C)C)cc2)cc1` ?
0.2

---

assay overview: Measurement of solubility in water, alcohols and oily cosmetic bases
Type: physicochemical
condition: organic solvent or mixture; Castor oil, 15°C
assay metric: solubility
Report as: number unit

Sample COc1ccc(C(=O)CC(=O)c2ccc(C(C)(C)C)cc2)cc1 [4-t-butyl-4'-methoxydibenzoylmethane, 4-t-butyl-4'-methoxy-dibenzoylmethane] — what was its solubility?
96 mg/mL
